B1: RPS21 (parent)
chain: AEVSWEPGRREGCDICAGKAGCPI

Variants of: B1
procedure-details: protein stability index of a GFP-peptide fusion (GPS, HEK-293T) (PSI 1-6); higher = more stable;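 further: lentivirally expressed fusions sorted by FACS into six bins by GFP to DsRed ratio, PSI derived from sequencing read proportions per bin multiplied by bin number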
experimental-setup: c terminus: a fixed tail appended
Please enter Yes where protein stability index is greater than or equal to 3, and No where it is lower.

Solved entries (count: 2):
Exam item: Check if protein stability index >= 3 (inclusive). Item: AEVSWQPGRREGCDICAGKAGCPI [E6Q]
Marked response: No

Exam item: Check if protein stability index >= 3 (inclusive). Item: AEVGWEPGRREGCDICAGKAGCPI [S4G]
Marked response: Yes

New cases:
Exam item: Check if protein stability index >= 3 (inclusive). Item: AEVSWEPGRREGCDICAGKKGCPI [A20K]
Marked response: No

Exam item: Check if protein stability index >= 3 (inclusive). Item: AEESWEPGRREGCDICAGKAGCPI [V3E]
Marked response: Yes

Exam item: Check if protein stability index >= 3 (inclusive). Item: AEVSWEPGRREGCDICAGKAFCPI [G21F]
Marked response: No

Exam item: Check if protein stability index >= 3 (inclusive). Item: AEVSWEPQRREGCDICAGKAGCPI [G8Q]
Marked response: Yes

Exam item: Check if protein stability index >= 3 (inclusive). Item: AEVSWEPGRREGCDICAGKAGCAI [P23A]
Marked response: No

Data provenance is the supplement of paper PMC10567573.
